Tested on: Mycobacterium tuberculosis
test summary: AntiMycobacterium tuberculosis activity 2-week Alamar Blue 7H9/ADC/Tw MIC (uM)
Type: functional
study conditions: 336 h
Threshold 6 µM: MIC strictly smaller gives True, otherwise False.

>>> df
                                   compound  assigned_class
0                 FC(F)(F)c1nnc2ccc(Cl)nn12            True
1  CCc1ccc([C@@H]2C[C@H](C(F)(F)F)n3ncc(C(=O)NCc4ccc(OC)cc4)c3N2)cc1            True
2    Cc1nn(Cc2ccccc2)c(Cl)c1C(=O)NC1CCCCCC1           False
3  CCC(Sc1nc2ccccc2o1)C(=O)Nc1nccs1 (stereo not given)           False
4  Cn1ccnc1CNCCS(=O)(=O)c1cccc(Nc2ccc(-c3cccc(F)c3)cn2)c1           False
5  C[C@]1(COc2ccc(N3CCC(Oc4ccc(OC(F)(F)F)cc4)CC3)cc2)Cn2cc([N+](=O)[O-])nc2O1            True
6  CCc1ccc(S(=O)(=O)Nc2cc(CN3CCN(CCC(C)C)CC3)ccc2C)cc1           False
7      NC(=O)c1cc(-c2ccsc2)ccc1OCCOc1ccccc1           False
8  CC(C)=CCC/C(C)=C\CNCCNC1C2CC3CC(C2)CC1C3 (stereo not given)            True
9  Cc1cc(NCCc2ccccc2)nc(NC(=N)Nc2ccc(Cl)cc2)n1            True
